Recorded half-life values for a group of compounds are listed next.
test: Half life in rat at 5 mg/kg, po; assay type: ADME, organism-based; parameters: dose 5 mg/kg, route oral; details: in vivo
Kindly answer with a numeric value in h, unit omitted.

| smiles_input | measure_name | obs_value |
| --- | --- | --- |
| N#Cc1cnccc1COc1cnc(N2CCN(C(=O)OCC(F)(F)F)CC2)nc1 | half-life | 2.1 |
| N#Cc1cnccc1COc1cnc(N2CC3CCC(C2)N3C(=O)OCC(F)(F)F)nc1 | half-life | 2.6 |

// query Quick check: half-life of `C[C@@H]1CN(C(=O)OCC(F)(F)F)CCN1c1ncc(OCc2ccncc2C#N)cn1` ?
// result 2.2

* * *

The reader will find IC50 measurements below, all made with Glucose-dependent insulinotropic receptor (Homo sapiens, UniProt Q8TDV5).
Sequence (Q8TDV5 whole entry): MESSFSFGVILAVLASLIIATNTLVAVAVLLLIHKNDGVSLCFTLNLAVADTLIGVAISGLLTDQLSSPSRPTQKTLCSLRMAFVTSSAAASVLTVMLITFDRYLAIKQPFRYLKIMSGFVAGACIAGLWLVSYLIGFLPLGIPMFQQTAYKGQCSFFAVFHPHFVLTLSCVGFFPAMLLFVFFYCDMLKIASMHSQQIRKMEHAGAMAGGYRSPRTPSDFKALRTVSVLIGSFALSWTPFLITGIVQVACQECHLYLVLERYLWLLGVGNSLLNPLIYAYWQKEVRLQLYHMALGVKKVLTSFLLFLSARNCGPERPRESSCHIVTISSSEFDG
Kindly answer with a numeric value in nM, unit omitted.

// worked examples, IC50 included
| compound | target_or_test_system | unit_symbol | IC50 |
| --- | --- | --- | --- |
| CC(C)(C)OC(=O)N1C2CCC1CN(c1ncc(OCc3ccncc3C#N)cn1)C2 | Glucose-dependent insulinotropic receptor (Homo sapiens, UniProt Q8TDV5) | nM | 1 |
| C[C@@H]1CN(C(=O)OC2CC(F)(F)C2(F)F)CCN1c1ncc(OCc2ccncc2C#N)cn1 (some centres undefined) | Glucose-dependent insulinotropic receptor (Homo sapiens, UniProt Q8TDV5) | nM | 6 |

// query Quick check: IC50 of `CC(C)(C)OC(=O)N1CC2CCC(C1)N2c1ncc(OCc2ccc(S(C)(=O)=O)cc2)cn1` ?
// result 92

// query Another compound: `N#Cc1cnccc1COc1cnc(N2CCN(C(=O)OCC(F)(F)F)CC2)nc1`
// result 18

* * *

Target: UniProtKB Q7TQP3
Sequence (Q7TQP3 whole entry): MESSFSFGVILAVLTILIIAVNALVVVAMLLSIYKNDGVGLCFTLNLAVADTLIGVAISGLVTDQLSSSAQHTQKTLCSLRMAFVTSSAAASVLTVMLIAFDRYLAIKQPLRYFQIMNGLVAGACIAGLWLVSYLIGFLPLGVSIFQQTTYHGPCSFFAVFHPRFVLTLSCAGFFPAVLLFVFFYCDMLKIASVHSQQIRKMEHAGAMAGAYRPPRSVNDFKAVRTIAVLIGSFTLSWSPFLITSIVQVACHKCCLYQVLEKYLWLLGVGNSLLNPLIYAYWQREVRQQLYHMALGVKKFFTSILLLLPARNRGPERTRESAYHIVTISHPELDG
Recorded IC50 values for a group of compounds are listed next.
Kindly answer with a numeric value in nM, unit omitted.

// worked examples, IC50 included
| compound | obs_value |
| --- | --- |
| CC(C)c1nc(N2C3CCC2CN(c2ncc(OCc4ccncc4C#N)cn2)C3)no1 | 122 |
| N#Cc1cnccc1COc1cnc(N2CC3CCC(C2)N3C(=O)OCC(F)(F)F)nc1 | 104 |

// query Quick check: IC50 of `CC(C)(C)OC(=O)N1CC2CCC(C1)N2c1ncc(OCc2ccc(S(C)(=O)=O)cc2)cn1` ?
// result 72

// query Another compound: N#Cc1cnccc1COc1cnc(N2CC3CCC(C2)N3C(=O)OC2CC(F)(F)C2(F)F)nc1 (centres undefined)
// result 65
